Target: NTPDase8 (Homo sapiens, UniProt Q5MY95)
Sequence (Q5MY95 1-495): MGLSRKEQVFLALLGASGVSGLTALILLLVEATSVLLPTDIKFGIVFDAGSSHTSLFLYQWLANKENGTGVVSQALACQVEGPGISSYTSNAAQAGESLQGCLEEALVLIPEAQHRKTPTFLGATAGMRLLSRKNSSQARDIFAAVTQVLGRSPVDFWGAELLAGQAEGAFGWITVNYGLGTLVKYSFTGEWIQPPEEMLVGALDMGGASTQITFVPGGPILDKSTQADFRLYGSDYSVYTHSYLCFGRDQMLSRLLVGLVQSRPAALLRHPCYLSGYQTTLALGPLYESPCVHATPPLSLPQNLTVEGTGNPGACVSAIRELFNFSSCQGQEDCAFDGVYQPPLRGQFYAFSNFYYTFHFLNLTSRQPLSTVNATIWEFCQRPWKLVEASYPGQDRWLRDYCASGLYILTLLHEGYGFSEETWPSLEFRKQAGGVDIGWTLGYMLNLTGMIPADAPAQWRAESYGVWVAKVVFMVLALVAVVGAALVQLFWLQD
Test: Malachite green assay for NTPDase8
Details: ATP 50 µM, recombinant COS-7 cell membrane preparation, read-out: Ki ± SEM
Quick reference for Ki among some compounds

Worked cases, Ki given:
INSERT INTO results (compound, result) VALUES
  ('CCCCNc1nc2c(NC)ncnc2n1[C@@H]1O[C@H](COP(=O)(O)OP(=O)(O)C(Br)(Br)P(=O)(O)O)[C@@H](O)[C@H]1O [Compound 33]', '> 50 µM'),
  ('CCN(CC)c1ncnc2c1ncn2[C@@H]1O[C@H](COP(=O)(O)OP(=O)(O)C(Br)(Br)P(=O)(O)O)[C@@H](O)[C@H]1O [ARL67156, reference compound]', '> 50 µM');

Now let's try a different one.
Form field - read-out: Ki; system: NTPDase8 (Homo sapiens, UniProt Q5MY95); submitted item: CCCCSc1nc2c(N)ncnc2n1[C@@H]1O[C@H](COP(=O)(O)OP(=O)(O)C(Br)(Br)P(=O)(O)O)[C@@H](O)[C@H]1O [Compound 31]
> 50 µM

----------
Test: Metabolic stability in mouse liver microsomes
Assay type: in vitro ADME
Conditions: both sexes; mouse liver microsomes 0.5 mg/mL; compound 1 μM
Procedure: The experiments were performed by Pharmacelsus, Saarbrücken, Germany (https://www.pharmacelsus.com/services/in-vitro-adme/) using human and mouse liver microsomes (0.5 mg/mL, mixed gender, pooled). Compounds were tested at a concentration of 1 μM. Data points represent means of two separate experiments performed in duplicates.
Reported half-life at 1 μM is given for each of the following compounds.

Examples with answers:
INSERT INTO assay_data (compound, result) VALUES
  ('CCN(CC)c1ncnc2c1ncn2[C@@H]1O[C@H](COP(=O)(O)OP(=O)(O)C(Br)(Br)P(=O)(O)O)[C@@H](O)[C@H]1O [ARL67156, reference compound]', '< 1 min'),
  ('CCCCNc1nc2c(NC)ncnc2n1[C@@H]1O[C@H](COP(=O)(O)OP(=O)(O)C(Br)(Br)P(=O)(O)O)[C@@H](O)[C@H]1O [Compound 33]', '< 1 min');

Next compound, please.
Would you kindly share the measured half-life at 1 μM for CCCCSc1nc2c(N)ncnc2n1[C@@H]1O[C@H](COP(=O)(O)OP(=O)(O)C(Br)(Br)P(=O)(O)O)[C@@H](O)[C@H]1O [Compound 31] ?
< 1 min

----------
Assay: Metabolic stability in human liver microsomes
Type: in vitro ADME
Settings: both sexes; human liver microsomes 0.5 mg/mL; compound 1 μM
MEASURED_PROPERTY: half-life at 1 μM

INSERT INTO measurements (molecule, measured_property, result) VALUES
  ('CCN(CC)c1ncnc2c1ncn2[C@@H]1O[C@H](COP(=O)(O)OP(=O)(O)C(Br)(Br)P(=O)(O)O)[C@@H](O)[C@H]1O [ARL67156, reference compound]', 'half-life at 1 μM', '< 1 min'),
  ('CCCCSc1nc2c(N)ncnc2n1[C@@H]1O[C@H](COP(=O)(O)OP(=O)(O)C(Br)(Br)P(=O)(O)O)[C@@H](O)[C@H]1O [Compound 31]', 'half-life at 1 μM', '< 1 min');

Dear colleague, I am looking for the recorded half-life at 1 μM of the following molecule: CCCCNc1nc2c(NC)ncnc2n1[C@@H]1O[C@H](COP(=O)(O)OP(=O)(O)C(Br)(Br)P(=O)(O)O)[C@@H](O)[C@H]1O [Compound 33]
< 1 min

----------
Target: human CD39 (Homo sapiens)
Sequence (P49961 whole entry): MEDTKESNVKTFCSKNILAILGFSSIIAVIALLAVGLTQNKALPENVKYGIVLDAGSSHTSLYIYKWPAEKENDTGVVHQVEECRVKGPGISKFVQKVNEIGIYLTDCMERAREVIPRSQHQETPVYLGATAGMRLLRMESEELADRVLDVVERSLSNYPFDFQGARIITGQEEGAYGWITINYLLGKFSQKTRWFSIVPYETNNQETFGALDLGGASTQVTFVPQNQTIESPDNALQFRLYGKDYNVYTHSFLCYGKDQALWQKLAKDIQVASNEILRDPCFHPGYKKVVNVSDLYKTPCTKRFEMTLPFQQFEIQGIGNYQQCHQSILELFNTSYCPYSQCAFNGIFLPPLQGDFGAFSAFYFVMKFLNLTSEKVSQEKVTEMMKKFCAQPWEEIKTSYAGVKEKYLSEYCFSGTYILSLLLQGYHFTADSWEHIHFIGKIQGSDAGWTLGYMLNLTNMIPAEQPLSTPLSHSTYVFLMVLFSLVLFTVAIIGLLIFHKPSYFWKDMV
Experiment: Malachite green assay for CD39 (natural substrate ATP)
Assay type: biochemical
Set-up: Human umbilical cord membrane preparations (250 ng) natively expressing high amounts of CD39; from tissue; host or cells: human umbilical cord membranes
Settings: natural substrate ATP 50 µM, n = 3, read-out: Ki ± SEM (converted)
Ki by entry:
Value expressed in µM; do not type the unit.

INSERT INTO assay_data (compound, measured_property, measure_unit, result) VALUES
  ('CCCCNc1nc2c(NC)ncnc2n1[C@@H]1O[C@H](COP(=O)(O)OP(=O)(O)C(Br)(Br)P(=O)(O)O)[C@@H](O)[C@H]1O', 'Ki', 'µM', 3.35);

Notebook entry, human CD39 (Homo sapiens) assay: Ki of CCCCSc1nc2c(N(CC)CC)ncnc2n1[C@@H]1O[C@H](COP(=O)(O)OP(=O)(O)C(Br)(Br)P(=O)(O)O)[C@@H](O)[C@H]1O = ?
5.98

Now try Nc1ncnc2c1ncn2[C@@H]1O[C@H](COP(=O)(O)OP(=O)(O)C(F)(F)P(=O)(O)O)[C@@H](O)[C@H]1O .
4.55

Entry Nc1ncnc2c1ncn2[C@@H]1O[C@H](COP(=O)(O)CP(=O)(O)OP(=O)(O)O)[C@@H](O)[C@H]1O [Compound 41, α,β-Methylene-ATP, reference compound] please
7.2

----------
Quick reference for pKi among some molecules
Biological target: human NPP5 (Homo sapiens, UniProt Q9UJA9)
Sequence (Q9UJA9 25-431 limits assumed): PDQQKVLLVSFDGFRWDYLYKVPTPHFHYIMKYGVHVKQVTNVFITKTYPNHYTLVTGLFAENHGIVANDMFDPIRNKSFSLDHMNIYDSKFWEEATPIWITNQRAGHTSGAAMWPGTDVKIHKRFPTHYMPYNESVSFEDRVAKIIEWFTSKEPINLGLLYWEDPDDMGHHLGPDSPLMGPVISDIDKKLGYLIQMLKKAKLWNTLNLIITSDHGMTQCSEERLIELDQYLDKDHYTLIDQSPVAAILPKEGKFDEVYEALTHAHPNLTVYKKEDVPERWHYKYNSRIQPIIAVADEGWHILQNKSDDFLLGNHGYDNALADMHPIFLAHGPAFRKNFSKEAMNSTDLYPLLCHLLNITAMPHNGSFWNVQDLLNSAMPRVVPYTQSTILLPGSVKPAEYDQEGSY
pKi: −log10 of the molar value.

INSERT INTO results (molecule, tested_on, result) VALUES
  ('CCN(CC)c1ncnc2c1ncn2[C@@H]1O[C@H](COP(=O)(O)OP(=O)(O)C(Br)(Br)P(=O)(O)O)[C@@H](O)[C@H]1O [ARL67156, reference compound]', 'human NPP5 (Homo sapiens, UniProt Q9UJA9)', '< 5.00'),
  ('CCCCSc1nc2c(N)ncnc2n1[C@@H]1O[C@H](COP(=O)(O)OP(=O)(O)C(Br)(Br)P(=O)(O)O)[C@@H](O)[C@H]1O', 'human NPP5 (Homo sapiens, UniProt Q9UJA9)', '< 5.00');

Moving on to another molecule below.
Give its pKi value. Item: CCCCNc1nc2c(NC)ncnc2n1[C@@H]1O[C@H](COP(=O)(O)OP(=O)(O)C(Br)(Br)P(=O)(O)O)[C@@H](O)[C@H]1O
< 5.00

----------
Molecular target: UniProt:P49961
Test: Fluorescence capillary electrophoresis assay for CD39
Type: biochemical
Set-up: Human umbilical cord membrane preparations (250 ng) natively expressing high amounts of CD39; from tissue; host or cells: human umbilical cord membranes
Settings: fluorescent substrate PSB-017621A 0.5 µM; human umbilical cord membrane preparation; n = 3; Cheng-Prusoff; read-out: Ki ± SEM
MEASURED_PROPERTY: Ki (µM)
Report the figure in µM without appending any unit label.

// known answers, use as guide
INSERT INTO assay_data (smiles_record, measured_property, measure_unit, result) VALUES
  ('Nc1ncnc2c1ncn2[C@@H]1O[C@H](COP(=O)(O)OP(=O)(O)C(Br)(Br)P(=O)(O)O)[C@@H](O)[C@H]1O', 'Ki', 'µM', 5.26),
  ('CCN(C)c1ncnc2c1ncn2[C@@H]1O[C@H](COP(=O)(O)OP(=O)(O)C(Br)(Br)P(=O)(O)O)[C@@H](O)[C@H]1O', 'Ki', 'µM', 6.48),
  ('CCCN(CC)c1ncnc2c1ncn2[C@@H]1O[C@H](COP(=O)(O)OP(=O)(O)C(Br)(Br)P(=O)(O)O)[C@@H](O)[C@H]1O', 'Ki', 'µM', 2.22);

Now look at this entry.
Please provide the recorded Ki for CNc1ncnc2c1nc(NC1CC1)n2[C@@H]1O[C@H](COP(=O)(O)OP(=O)(O)C(Br)(Br)P(=O)(O)O)[C@@H](O)[C@H]1O , tested on UniProt:P49961.
5.72

src = paper PMC7508162
